- Test system: Aβ42 production
- assay-protocol: Quantification of Aβ peptide in culture of neurons from rat fetus brain (Aβ ELISA)
- Type: cell-based
- conditions: Neuron, 72 h; rat primary neuronal culture (cerebral cortex, embryonic day 18 Wistar rats); medium collected three days after addition of compound; Aβx-42 ELISA; read-out: Activity for reducing Aβ42 production IC50
assay-readout: log10 IC50 (log10 of the value in nM)
Use the decimal logarithm of IC50 (nM).

Consider the reported log10 IC50 for these molecules:
# molecule, test-value
records = [
    ("COc1cc(/C=C2\\O[C@@H](C)CN([C@](C)(CO)c3cc(F)c(F)c(F)c3)C2=O)ccc1-n1cnc(C)c1 [Example 36]", 2.04),
    ("COc1cc(/C=C2\\O[C@H](C)CN([C@H](c3cc(F)c(F)c(F)c3)[C@@H](C)O)C2=O)ccc1-n1cnc(C)c1 [Example 29]", 1.36),
    ("Cc1cn(-c2ccc(/C=C3\\O[C@@H](C)CN([C@H](c4ccc(F)c(F)c4)[C@@H](C)O)C3=O)cc2F)cn1 [Example 75]", 2.16),
    ("COc1cc(/C=C2\\O[C@@H](C)CN([C@@H](C)c3cc(F)nc(F)c3)C2=O)ccc1-n1cnc(C)c1 [Example 53]", 1.60),
    ("COc1cc(/C=C2\\O[C@@H](C)CN(C(C)(C)c3ccc(F)cc3)C2=O)ccc1-n1cnc(C)c1 [Example 38]", 1.72),
    ("COc1cc(/C=C2\\O[C@@H](C)CN([C@@H](C)c3ccc(Cl)nc3)C2=O)ccc1-n1cnc(C)c1 [Example 18]", 2.26),
]

Request: Quote log10 IC50 reported for COc1cc(/C=C2\OC(C)(C)CN([C@H](c3cc(F)c(F)c(F)c3)[C@@H](C)O)C2=O)ccc1-n1cnc(C)c1 [Example 27] please.
Response: 0.70

Request: State its log10 IC50: COc1cc(/C=C2\OC(C)(C)CN([C@@H](C)c3ccnc(Cl)c3)C2=O)ccc1-n1cnc(C)c1 [Example 54]
Response: 1.87

====

- Test system: Aβ42 production
- assay-protocol: Quantification of Aβ peptide in culture of neurons from rat fetus brain (Aβ ELISA)
- Type: cell-based
- conditions: Neuron, 72 h; rat primary neuronal culture (cerebral cortex, embryonic day 18 Wistar rats); medium collected three days after addition of compound; Aβx-42 ELISA; read-out: Activity for reducing Aβ42 production IC50
The label is MET for IC50 below 80 nM and NOT MET for IC50 equal to or exceeding 80 nM.

Example results:
# smiles-input, cat
records = [
    ("COc1cc(/C=C2\\O[C@@H](C)CN([C@H](c3ccc(F)cc3)[C@@H](C)O)C2=O)ccc1-n1cnc(C)c1", "MET"),
    ("Cc1cn(-c2ccc(/C=C3\\O[C@@H](C)CN([C@H](c4cc(F)c(F)c(F)c4)[C@@H](C)O)C3=O)cc2F)cn1", "NOT MET"),
    ("COc1cc(/C=C2\\OC[C@H]3COC[C@@H](c4ccc(Cl)cc4)N3C2=O)ccc1-n1cnc(C)c1", "NOT MET"),
    ("COc1cc(/C=C2\\O[C@@H](C)CN([C@@H](C)c3ccc(F)nc3F)C2=O)ccc1-n1cnc(C)c1", "MET"),
    ("COc1cc(/C=C2\\O[C@@H](C)CN([C@H]3CCOc4ccccc43)C2=O)ccc1-n1cnc(C)c1", "NOT MET"),
]

Request: Dear reviewer, please state whether "COc1cc(/C=C2\O[C@@H](C)CN([C@H](C)c3ccc(F)nc3F)C2=O)ccc1-n1cnc(C)c1" has IC50 strictly beneath 80 nM.
Response: NOT MET

Request: I'd appreciate it if you could check whether "COc1cc(/C=C2\O[C@H](C)CN([C@H]3CCOc4ccccc43)C2=O)ccc1-n1cnc(C)c1" has IC50 smaller than 80 nM.
Response: NOT MET

====

- Tested on: Aβ42 production
- assay-protocol: Quantification of Aβ peptide in culture of neurons from rat fetus brain (Aβ ELISA)
- Assay type: cell-based
- conditions: Neuron, 72 h; rat primary neuronal culture (cerebral cortex, embryonic day 18 Wistar rats); medium collected three days after addition of compound; Aβx-42 ELISA; read-out: Activity for reducing Aβ42 production IC50
- Protocol: Quantification of Aβ Peptide in Culture of Neurons from Rat Fetus Brain (1) Rat Primary Neuronal Culture Primary neuronal cultures were prepared from the cerebral cortex of embryonic day 18 Wistar rats (Charles River Japan, Yokohama, Japan). Specifically, the embryos were aseptically removed from pregnant rats under ether anesthesia. The brain was isolated from the embryo and immersed in an ice-cold L-15 medium (Invitrogen Corp. Cat #11415-064, Carlsbad, Calif., USA, or SIGMA L1518, for example). […]
assay-readout: IC50 (nM)
Please state the figure in nM; there is no need to write the unit.

Request: Under Aβ42 production, report IC50 for "COc1cc(/C=C2\OCCN([C@H](c3ccc(F)c(F)c3)[C@@H](C)O)C2=O)ccc1-n1cnc(C)c1"
Response: 31

Request: Write IC50 of "COc1cc(/C=C2\OC(C)(C)CN([C@H](c3ccc(F)c(F)c3)[C@@H](C)O)C2=O)ccc1-n1cnc(C)c1" ; system used: Aβ42 production
Response: 23

Request: For Aβ42 production, give IC50 of the listed compound: "COc1cc(/C=C2\O[C@@H](C)CN([C@H](c3ccc(F)c(F)c3)[C@@H](C)O)C2=O)ccc1-n1cnc(C)c1"
Response: 23

====

// reported pIC50 per item
- Test system: Aβ42 production
- assay-protocol: Quantification of Aβ peptide in culture of neurons from rat fetus brain (Aβ ELISA)
- Format: cell-based
- conditions: Neuron, 72 h; rat primary neuronal culture (cerebral cortex, embryonic day 18 Wistar rats); medium collected three days after addition of compound; Aβx-42 ELISA; read-out: Activity for reducing Aβ42 production IC50
By convention, pIC50 is the negative base-10 log of a molar concentration.

# molecule, assay-readout, test-value
measured = [
    ("COc1cc(/C=C2\\O[C@@H](C)CN([C@@H](C)c3ccc(Cl)cn3)C2=O)ccc1-n1cnc(C)c1 [Example 20]", "pIC50", 7.09),
    ("COc1cc(/C=C2\\OC[C@H]3CCC[C@@H](c4ccc(Cl)cc4)N3C2=O)ccc1-n1cnc(C)c1 [Example 107]", "pIC50", 7.11),
    ("COc1cc(/C=C2\\O[C@@H](C)CN([C@@H](C)c3cc(F)c(F)c(F)c3)C2=O)ccc1-n1cnc(C)c1 [Example 37]", "pIC50", 7.70),
    ("COc1cc(/C=C2\\O[C@@H](C)CN([C@@H](C)c3ccc(F)cc3)C2=O)ccc1-n1cnc(C)c1 [Example 9]", "pIC50", 7.22),
    ("COc1cc(/C=C2\\OC(C)(C)CN([C@@H](C)c3ccc(F)cc3)C2=O)ccc1-n1cnc(C)c1 [Example 7]", "pIC50", 7.12),
    ("COc1cc(/C=C2\\OC[C@H]3CCC[C@@H](c4cc(F)c(F)c(F)c4)N3C2=O)ccc1-n1cnc(C)c1 [Example 40]", "pIC50", 7.00),
]

Request: Please supply the value of reported pIC50 for the item COc1cc(/C=C2\O[C@@H](C)CN([C@H](C)c3ccc(Cl)cn3)C2=O)ccc1-n1cnc(C)c1 [Example 21]
Response: 6.71

Request: Read the entry COc1cc(/C=C2\OCCN([C@@H](C)c3cc(F)c(F)c(F)c3)C2=O)ccc1-n1cnc(C)c1 [Example 10] and write its reported pIC50.
Response: 7.08

Request: Quick one: give measured pIC50 for COc1cc(/C=C2\O[C@@H](C)CN([C@@H](C)c3ccnc(Cl)c3F)C2=O)ccc1-n1cnc(C)c1 [Example 52]
Response: 7.07

Request: Specify measured pIC50 for Cc1cn(-c2ccc(/C=C3\CCCN([C@H](c4cc(F)c(F)c(F)c4)[C@@H](C)O)C3=O)cc2F)cn1 [Example 85] .
Response: 7.19
